Protocol notes: Pharmacokinetics in mice (IP, IV, PO)
Assay type: in vivo
Assay context: mouse, in vivo; mice, PO 5 mg/kg
Readout type: MRT inf

Ask | I'd like to know its MRT inf. The compound in question is `C=CC(=O)N[C@H]1COC[C@H]1Nc1cc(-c2cccnc2Nc2c(Cl)c(OC)cc(OC)c2Cl)ncn1`
Reply | 4.02 h

====

Study system: UniProt P11362
Sequence (P11362 22-822): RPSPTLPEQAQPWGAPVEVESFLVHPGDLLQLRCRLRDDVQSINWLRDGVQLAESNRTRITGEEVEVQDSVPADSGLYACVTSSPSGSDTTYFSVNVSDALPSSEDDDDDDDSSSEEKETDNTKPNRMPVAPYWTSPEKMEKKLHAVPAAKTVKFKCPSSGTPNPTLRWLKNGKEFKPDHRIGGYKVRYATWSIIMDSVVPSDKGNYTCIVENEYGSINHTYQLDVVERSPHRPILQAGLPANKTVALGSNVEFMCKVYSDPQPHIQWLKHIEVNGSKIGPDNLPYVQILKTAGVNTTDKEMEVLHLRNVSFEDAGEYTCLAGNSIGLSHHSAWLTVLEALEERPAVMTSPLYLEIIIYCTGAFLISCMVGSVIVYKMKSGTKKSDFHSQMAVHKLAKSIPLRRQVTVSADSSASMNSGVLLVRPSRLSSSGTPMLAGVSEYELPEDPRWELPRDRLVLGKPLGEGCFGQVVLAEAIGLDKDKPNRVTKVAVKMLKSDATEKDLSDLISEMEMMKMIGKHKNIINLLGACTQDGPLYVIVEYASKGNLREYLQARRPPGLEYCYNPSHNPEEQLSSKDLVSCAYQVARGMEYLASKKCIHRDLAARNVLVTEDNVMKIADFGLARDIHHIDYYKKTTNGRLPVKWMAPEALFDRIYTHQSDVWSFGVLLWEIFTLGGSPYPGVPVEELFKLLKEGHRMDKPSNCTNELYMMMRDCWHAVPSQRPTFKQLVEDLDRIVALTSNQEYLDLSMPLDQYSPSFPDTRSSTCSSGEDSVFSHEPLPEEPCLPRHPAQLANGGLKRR
Protocol notes: FGFR1 kinase inhibition (IC50)
Assay type: biochemical
Assay context: read-out: IC50 towards FGFR1
Readout type: IC50 (nM)
The reply should be a number in nM, with the unit left off.

Ask | I'd like to know its IC50. The compound in question is `C=CC(=O)N[C@H]1COC[C@H]1Nc1cc(-c2cccnc2Nc2c(Cl)c(OC)cc(OC)c2Cl)ncn1`
Reply | 1280
